// reported Ratio IC50 per item
- Species: Homo sapiens
- Protocol: Selectivity ratio of IC50 for 20S immunoproteasome beta 2 (unknown origin) to IC50 for 20S constitutive proteasome beta 2 trypsin-like activity (unknown origin)
Answer with a bare number; do not write a unit.

Here is how some compounds turned out for Ratio IC50.
Cc1ncc(C(=O)N[C@H](C(=O)N[C@@H](CC(C)C)C(=O)N[C@H](/C=C/S(C)(=O)=O)Cc2ccc(CN)cc2)C2CCCCC2)s1
1
Cc1ncc(C(=O)N[C@@H](CC(C)C)C(=O)N[C@@H](CC(C)C)C(=O)N[C@H](/C=C/S(C)(=O)=O)Cc2ccc(CN)cc2)s1
10
CC(C)[C@H](NC(=O)[C@H](Cc1ccc(CN)cc1)NC(=O)[C@H](Cc1ccccc1)N=[N+]=[N-])C(=O)N[C@H](C(=O)[C@@]1(C)CO1)C1CCCCC1
1
CC(C)C[C@H](NC(=O)c1cc(Cl)ccc1Cl)C(=O)N[C@@H](CC(C)C)C(=O)N[C@H](/C=C/S(C)(=O)=O)Cc1ccc(CN)cc1
5

From here, focus on the item given below.
Which measured Ratio IC50 value corresponds to CC(C)[C@H](NC(=O)[C@H](Cc1ccc(CN)cc1)NC(=O)[C@H](Cc1ccccc1)N=[N+]=[N-])C(=O)N[C@@H](CC1CC2CCC1C2)C(=O)[C@@]1(C)CO1 (stereo partly specified) ?
2.7

###

- Subject of test: Proteasome Macropain subunit MB1 (Homo sapiens)
- Sequence (P28074 whole entry): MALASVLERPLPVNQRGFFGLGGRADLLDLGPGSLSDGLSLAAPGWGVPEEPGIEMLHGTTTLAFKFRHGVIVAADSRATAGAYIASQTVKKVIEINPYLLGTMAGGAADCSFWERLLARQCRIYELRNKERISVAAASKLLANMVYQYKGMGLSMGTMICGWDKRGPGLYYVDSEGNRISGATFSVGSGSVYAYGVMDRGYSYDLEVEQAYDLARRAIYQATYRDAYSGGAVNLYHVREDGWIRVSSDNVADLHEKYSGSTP
- Protocol: Inhibition of 20S constitutive proteasome beta 5 chymotrypsin-like activity in human Raji cell lysates after 1 hr by competitive ABPP assay
- Assay type: subcellular, Lysate
// reported IC50 per item

Here is how some molecules turned out for IC50.
COC[C@H](NC(=O)[C@H](CC(C)C)NC(=O)c1cnc(C)s1)C(=O)N[C@H](/C=C/S(C)(=O)=O)Cc1ccc(CN)cc1
45.3 µM
COc1ccc(C[C@H](NC(=O)[C@H](C)NC(=O)CN2CCOCC2)C(=O)N[C@@H](CCC2CCCCC2)C(=O)[C@@]2(C)CO2)cc1
5 µM
CC(C)C[C@H](NC(=O)[C@H](Cc1ccccc1)N=[N+]=[N-])C(=O)N[C@@H](CO)C(=O)N[C@H](/C=C/S(C)(=O)=O)Cc1ccc(CN)cc1
1.4 µM
CC(C)C[C@H](NC(=O)[C@H](Cc1ccccc1)N=[N+]=[N-])C(=O)N[C@H](C(=O)N[C@H](/C=C/S(C)(=O)=O)Cc1ccc(CN)cc1)[C@@H](C)O
0.75 µM
COC1CCC(C[C@H](NC(=O)c2cnc(C)s2)C(=O)N[C@@H](CC(C)C)C(=O)N[C@H](/C=C/S(C)(=O)=O)Cc2ccc(CN)cc2)CC1 (stereo not given in full)
> 100 µM
COc1ccc(C[C@H](NC(=O)[C@H](C)NC(=O)CN2CCOCC2)C(=O)N[C@@H](C[C@H]2CCCc3ccccc32)C(=O)[C@@]2(C)CO2)cc1
> 100 µM
Cc1ncc(C(=O)N[C@@H](CC2CCCCC2)C(=O)N[C@@H](CC(C)C)C(=O)N[C@H](/C=C/S(C)(=O)=O)Cc2ccc(CN)cc2)s1
> 100 µM
COc1ccc(C[C@H](NC(=O)[C@H](C)NC(=O)CN2CCOCC2)C(=O)N[C@@H](C[C@@H]2CCCC3CCCCC32)C(=O)[C@@]2(C)CO2)cc1 (stereo not given in full)
> 100 µM
CC(C)C[C@H](NC(=O)[C@H](Cc1ccccc1)N=[N+]=[N-])C(=O)NCC(=O)N[C@H](/C=C/S(C)(=O)=O)Cc1ccc(CN)cc1
8.6 µM
COc1ccc(C[C@H](NC(=O)[C@H](C)NC(=O)CN2CCOCC2)C(=O)N[C@@H](C[C@@H]2CCC[C@H]3CCCC[C@H]32)C(=O)[C@@]2(C)CO2)cc1
> 100 µM

Value wanted: IC50 (Proteasome Macropain subunit MB1 (Homo sapiens)) of entry CC(C)C[C@H](NC(=O)c1cnccn1)C(=O)N[C@@H](CC(C)C)C(=O)N[C@H](/C=C/S(C)(=O)=O)Cc1ccc(CN)cc1
> 100 µM

Value wanted: IC50 (Proteasome Macropain subunit MB1 (Homo sapiens)) of entry COc1ccc(C[C@H](NC(=O)[C@H](C)NC(=O)CN2CCOCC2)C(=O)N[C@@H](C[C@@H]2CCCc3ccccc32)C(=O)[C@@]2(C)CO2)cc1
> 100 µM

Value wanted: IC50 (Proteasome Macropain subunit MB1 (Homo sapiens)) of entry COc1ccc(C[C@H](NC(=O)[C@H](C)NC(=O)CN2CCOCC2)C(=O)N[C@@H](CC2CCCC3CCCCC32)C(=O)[C@@]2(C)CO2)cc1 (stereo not given in full)
> 100 µM

Value wanted: IC50 (Proteasome Macropain subunit MB1 (Homo sapiens)) of entry COc1ccc(C[C@H](NC(=O)[C@H](C)NC(=O)CN2CCOCC2)C(=O)N[C@@H](C[C@H]2CCC[C@@H]3CCCC[C@@H]32)C(=O)[C@@]2(C)CO2)cc1
> 100 µM

Value wanted: IC50 (Proteasome Macropain subunit MB1 (Homo sapiens)) of entry COc1ccc(C[C@H](NC(=O)[C@H](C)NC(=O)CN2CCOCC2)C(=O)N[C@@H](C[C@H]2CCCC3CCCCC32)C(=O)[C@@]2(C)CO2)cc1 (stereo not given in full)
> 100 µM

###

- Subject of test: Proteasome subunit beta type-10 (Homo sapiens, UniProt P40306)
- Sequence (P40306 whole entry): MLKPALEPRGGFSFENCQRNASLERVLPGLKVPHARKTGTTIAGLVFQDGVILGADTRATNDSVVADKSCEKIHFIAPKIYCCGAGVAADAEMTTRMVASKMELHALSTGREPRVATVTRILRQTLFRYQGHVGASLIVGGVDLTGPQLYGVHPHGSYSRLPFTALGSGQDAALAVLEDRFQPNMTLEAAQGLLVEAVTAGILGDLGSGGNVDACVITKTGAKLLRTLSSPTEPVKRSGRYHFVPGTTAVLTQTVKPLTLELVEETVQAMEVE
- Protocol: Inhibition of 20S immunoproteasome beta 2 in human RPMI8226 cell lysates after 1 hr by coomassie brilliant blue staining-based fluorescence assay
- Type: subcellular, Lysate
// reported IC50 per item

CC(C)C[C@H](NC(=O)[C@H](Cc1ccccc1)N=[N+]=[N-])C(=O)NCC(=O)N[C@H](/C=C/S(C)(=O)=O)Cc1ccc(CN)cc1
> 10 µM
Cc1ncc(C(=O)N[C@@H](CC2CCCCC2)C(=O)N[C@@H](CC(C)C)C(=O)N[C@H](/C=C/S(C)(=O)=O)Cc2ccc(CN)cc2)s1
> 10 µM

Which measured IC50 value corresponds to CC(C)C[C@H](NC(=O)[C@H](Cc1ccccc1)N=[N+]=[N-])C(=O)N[C@@H](CO)C(=O)N[C@H](/C=C/S(C)(=O)=O)Cc1ccc(CN)cc1 ?
> 10 µM

###

- Subject of test: Proteasome subunit beta type-10 (Homo sapiens)
- Protocol: Inhibition of 20S immunoproteasome beta 2 (unknown origin) by cell based ABPP assay
pIC50: −log10 of the molar value.
So basically, the class depends on measured pIC50, and the ranges are range 1 = under 6, range 2 = from 6 up to 7, range 3 = 7 and over

Example cases with answers are listed next.
Cc1ncc(C(=O)N[C@@H](CC2CCCCC2)C(=O)N[C@@H](CC(C)C)C(=O)N[C@H](/C=C/S(C)(=O)=O)Cc2ccc(CN)cc2)s1
range 2
COC1CCC(C[C@H](NC(=O)[C@H](CC(C)C)NC(=O)c2cnc(C)s2)C(=O)N[C@H](/C=C/S(C)(=O)=O)Cc2ccc(CN)cc2)CC1 (some centres undefined)
range 2

Consider Cc1ncc(C(=O)N[C@@H](CC(C)C)C(=O)N[C@@H](CC2CCCCC2)C(=O)N[C@H](/C=C/S(C)(=O)=O)Cc2ccc(CN)cc2)s1 . To which pIC50 class does it belong?
range 2

Consider Cc1ncc(C(=O)N[C@@H](CC2CCCCC2)C(=O)N[C@@H](CC2CCCCC2)C(=O)N[C@H](/C=C/S(C)(=O)=O)Cc2ccc(CN)cc2)s1 . To which pIC50 class does it belong?
range 2

Consider COC1CCC(C[C@H](NC(=O)c2cnc(C)s2)C(=O)N[C@@H](CC(C)C)C(=O)N[C@H](/C=C/S(C)(=O)=O)Cc2ccc(CN)cc2)CC1 (some centres undefined) . To which pIC50 class does it belong?
range 1

Consider CC(C)C[C@H](NC(=O)c1cc(Cl)ccc1Cl)C(=O)N[C@@H](CC(C)C)C(=O)N[C@H](/C=C/S(C)(=O)=O)Cc1ccc(CN)cc1 . To which pIC50 class does it belong?
range 2

###

- Subject of test: Proteasome subunit beta type-8 (Homo sapiens, UniProt P28062)
- Sequence (P28062 whole entry): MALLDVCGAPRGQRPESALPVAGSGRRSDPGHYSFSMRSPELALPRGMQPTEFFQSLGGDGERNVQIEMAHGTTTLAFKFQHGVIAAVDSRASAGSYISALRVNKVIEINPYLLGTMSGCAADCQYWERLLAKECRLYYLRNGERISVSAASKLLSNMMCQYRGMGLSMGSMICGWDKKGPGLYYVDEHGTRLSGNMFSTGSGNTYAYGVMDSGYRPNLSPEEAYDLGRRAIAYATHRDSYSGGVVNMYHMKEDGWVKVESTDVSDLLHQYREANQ
- Protocol: Inhibition of 20S immunoproteasome beta 5 in human RPMI8226 cell lysates after 1 hr by coomassie brilliant blue staining-based fluorescence assay
- Assay type: subcellular, Lysate
Quantity kind: IC50

Here is how some molecules turned out for IC50.
CC(C)C[C@H](NC(=O)[C@H](Cc1ccccc1)N=[N+]=[N-])C(=O)N[C@@H](CO)C(=O)N[C@H](/C=C/S(C)(=O)=O)Cc1ccc(CN)cc1
> 10 µM
CC(C)C[C@H](NC(=O)c1cnccn1)C(=O)N[C@@H](CC(C)C)C(=O)N[C@H](/C=C/S(C)(=O)=O)Cc1ccc(CN)cc1
> 10 µM

From here, focus on the item given below.
Which measured IC50 value corresponds to CC(C)C[C@H](NC(=O)[C@H](Cc1ccccc1)N=[N+]=[N-])C(=O)N[C@@H](CC(C)C)C(=O)N[C@H](/C=C/S(C)(=O)=O)Cc1ccc(CN)cc1 ?
> 10 µM
